- Test system: SKOV3 (human ovarian carcinoma) cell line
- test-name: Cytotoxicity against SKOV3 cell line
- condition-context: Table 2
SKOV3 IC50 less than 2 ng/mL is yes (1); SKOV3 IC50 greater than or equal to 2 ng/mL is no (0).

compound: COc1ccc(C[C@H]2NC(=O)/C=C/C[C@@H]([C@H](C)[C@H]3O[C@@H]3c3ccccc3)OC(=O)[C@H](CC(C)C)OC(=O)CCNC2=O)cc1
assigned-label: yes (1)
//
compound: CC(C)CC1OC(=O)C(C)CNC(=O)C(Cc2ccc(O)c(Cl)c2)NC(=O)C=CCC(C(C)C=Cc2ccccc2)OC1=O (centres unmarked)
assigned-label: no (0)
//
compound: CCC(C)C1OC(=O)C(C)CNC(=O)C(Cc2ccc(OC)c(Cl)c2)NC(=O)C=CCC(C(C)C=Cc2ccccc2)OC1=O (centres unmarked)
assigned-label: no (0)
//
compound: COc1ccc(C[C@H]2NC(=O)/C=C/C[C@@H]([C@H](C)[C@H]3O[C@@H]3c3ccccc3)OC(=O)[C@H](CC(C)C)OC(=O)[C@H](C)CNC2=O)cc1Cl
assigned-label: yes (1)
//
compound: COc1ccc(C[C@H]2NC(=O)/C=C/C[C@@H]([C@H](C)[C@H]3O[C@@H]3c3ccccc3)OC(=O)[C@H](CC(C)C)OC(=O)[C@H](C)CNC2=O)cc1
assigned-label: yes (1)
//
compound: COc1ccc(C[C@H]2NC(=O)/C=C/C[C@@H](C/C=C/c3ccccc3)OC(=O)[C@H](CC(C)C)OC(=O)[C@H](C)CNC2=O)cc1Cl
assigned-label: no (0)
//
compound: COc1ccc(CC2NC(=O)C=CCC(C(C)C=Cc3ccccc3)OC(=O)C(C(C)C)OC(=O)C(C)CNC2=O)cc1Cl (centres unmarked)
assigned-label: no (0)
//
compound: COc1ccc(C[C@H]2NC(=O)/C=C/C[C@@H]([C@H](C)[C@@H](O)[C@@H](Cl)c3ccccc3)OC(=O)[C@H](CC(C)C)OC(=O)[C@H](C)CNC2=O)cc1Cl
assigned-label: yes (1)
//
compound: CC[C@H](C)[C@@H]1OC(=O)[C@H](C)CNC(=O)[C@@H](Cc2ccc(OC)c(Cl)c2)NC(=O)/C=C/C[C@@H]([C@H](C)[C@H]2O[C@@H]2c2ccccc2)OC1=O
assigned-label: no (0)
//
compound: COc1c(Cl)cc(CC2NC(=O)C=CCC(C(C)C3OC3c3ccccc3)OC(=O)C(CC(C)C)OC(=O)C(C)CNC2=O)cc1Cl (centres unmarked)
assigned-label: yes (1)
//
compound: CCCC1OC(=O)C(C)CNC(=O)C(Cc2ccc(OC)c(Cl)c2)NC(=O)C=CCC(C(C)C=Cc2ccccc2)OC1=O (centres unmarked)
assigned-label: yes (1)

* * *

- System: SKOV3 (human ovarian carcinoma) cell line
- test-name: Cytotoxicity against SKOV3 cell line
- condition-context: Table 2

molecule: COc1ccc(C[C@H]2NC(=O)/C=C/C[C@@H]([C@H](C)[C@@H](O)[C@@H](O)c3ccccc3)OC(=O)[C@H](CC(C)C)OC(=O)[C@H](C)CNC2=O)cc1Cl [Cryptophycin 15]
SKOV3 IC50 [ng/mL]: 12

molecule: CCC[C@@H]1OC(=O)[C@H](C)CNC(=O)[C@@H](Cc2ccc(OC)c(Cl)c2)NC(=O)/C=C/C[C@@H]([C@H](C)[C@H]2O[C@@H]2c2ccccc2)OC1=O [Cryptophycin 50]
SKOV3 IC50 [ng/mL]: 0.2

molecule: CC(C)C[C@@H]1OC(=O)[C@H](C)CNC(=O)[C@@H](Cc2ccc(O)c(Cl)c2)NC(=O)/C=C/C[C@@H]([C@H](C)[C@H]2O[C@@H]2c2ccccc2)OC1=O [Cryptophycin 16]
SKOV3 IC50 [ng/mL]: 0.64

molecule: COc1ccc(C[C@H]2NC(=O)/C=C/C[C@@H]([C@H](C)[C@H]3O[C@@H]3c3ccccc3)OC(=O)[C@H](CC(C)C)OC(=O)CCNC2=O)cc1Cl [Cryptophycin 21]
SKOV3 IC50 [ng/mL]: 0.029
